target: Muscarinic acetylcholine receptor M1 (Rattus norvegicus); test: Agonist activity at rat M1 receptor expressed in CHO cells assessed as increase in calcium mobilization measured after 2.5 mins by Fluo-4-AM dye based assay; assay type: functional, cell-based
Measured %max, listed per entry.

{"columns": ["compoundStructure", "%max"],
 "data": [
  ["Cn1ccc(-c2ccc(Cc3cc(C(=O)N[C@@H]4CCOC[C@H]4O)nc4c3ccn4C)cn2)n1", "67%"],
  ["Cn1ccc2c(Cc3ccc(-c4nccs4)cc3)cc(C(=O)N[C@@H]3CCOC[C@H]3O)nc21", "41%"],
  ["Cn1ccc(-c2ccc(Cc3cc(C(=O)N[C@@H]4CCCC[C@H]4O)nc4c3ccn4C)cn2)n1", "53%"]
]}

====

Measured Kp uu at 1 h, listed per entry.
test: Ratio of unbound brain to plasma concentration in C57BL/6J mouse at 100 mg/kg, ip after 1 hr by LC-MS/MS analysis; format: ADME, organism-based; details: brain and plasma, read-out: K(p,uu,brain)

{"columns": ["compoundStructure", "Kp uu at 1 h"],
 "data": [
  ["Cn1cc(-c2ccc(Cc3cc(C(=O)NC4CCOCC4)nc4c3ccn4C)cn2)cn1", 0.18],
  ["Cn1ccc(-c2ccc(Cc3cc(C(=O)N[C@@H]4CCCC[C@H]4O)nc4c3ccn4C)cn2)n1", 0.17],
  ["Cn1cc(-c2ccc(Cc3cc(C(=O)N[C@@H]4CCCC[C@H]4O)nc4c3ccn4C)cn2)cn1", 0.04],
  ["Cn1ccc(-c2ccc(Cc3cc(C(=O)N[C@@H]4CCOC[C@H]4O)nc4c3ccn4C)cc2)n1", 0.04]
]}

====

assay: Protein binding in human plasma assessed as unbound fraction at 5 uL measured after 4 hrs by LC-MS/MS based equilibrium dialysis method; type: ADME, cell-free
Measured fraction unbound at 4 h, 5 uL, listed per entry.

{"columns": ["compoundStructure", "fraction unbound at 4 h, 5 uL"],
 "data": [
  ["Cn1cc(-c2ccc(Cc3cc(C(=O)NC4CCOCC4)nc4c3ccn4C)cn2)cn1", 0.04],
  ["Cn1ccc(-c2ccc(Cc3cc(C(=O)N[C@@H]4CCCC[C@H]4O)nc4c3ccn4C)cn2)n1", 0.12],
  ["Cn1ccc(-c2ccc(Cc3cc(C(=O)N[C@@H]4CCOC[C@H]4O)nc4c3ccn4C)cc2)n1", 0.02],
  ["Cn1ccc2c(Cc3ccc(-c4nccs4)cc3)cc(C(=O)N[C@@H]3CCOC[C@H]3O)nc21", 0.02],
  ["Cn1ccc(-c2ccc(Cc3cc(C(=O)NC4CCOCC4)nc4c3ccn4C)cc2)n1", 0.02],
  ["Cn1cc(-c2ccc(Cc3cc(C(=O)N[C@@H]4CCCC[C@H]4O)nc4c3ccn4C)cn2)cn1", 0.04]
]}

====

Biological target: Muscarinic acetylcholine receptor M1 (Rattus norvegicus) (UniProt P08482)
Sequence (whole entry): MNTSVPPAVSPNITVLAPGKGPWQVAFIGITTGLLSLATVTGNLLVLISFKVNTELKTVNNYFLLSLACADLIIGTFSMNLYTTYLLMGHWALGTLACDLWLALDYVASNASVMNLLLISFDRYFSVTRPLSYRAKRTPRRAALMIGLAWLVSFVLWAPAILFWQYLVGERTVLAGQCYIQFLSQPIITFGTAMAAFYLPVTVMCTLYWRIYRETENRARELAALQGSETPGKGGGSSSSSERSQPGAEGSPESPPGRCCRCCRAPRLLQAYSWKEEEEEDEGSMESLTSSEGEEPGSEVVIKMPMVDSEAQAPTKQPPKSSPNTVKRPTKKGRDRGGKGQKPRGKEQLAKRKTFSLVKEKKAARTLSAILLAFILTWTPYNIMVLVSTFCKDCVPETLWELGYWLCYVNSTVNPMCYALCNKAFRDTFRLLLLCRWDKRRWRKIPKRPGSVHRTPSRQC
Experiment: Positive allosteric modulation of rat M1 receptor expressed in CHO cells assessed as increase in acetylcholine-induced calcium mobilization pretreated for 2.5 mins followed by acetylcholine addition and measured after 1 min by Fluo-4-AM dye based assay
Assay type: functional, cell-based
Measured %max, listed per entry.
metricName: %max (%)

{"columns": ["molecule", "reportedResult"],
 "data": [
  ["Cn1ccc(-c2ccc(Cc3cc(C(=O)NC4CC5(COC5)C4)nc4c3ccn4C)cn2)n1", 89],
  ["Cn1ccc2c(Cc3ccc(-n4cccn4)cc3)cc(C(=O)NC3CCOCC3)nc21", 87],
  ["Cn1ccc(-c2ccc(Cc3cc(C(=O)NC4CCOC(C)(C)C4)nc4c3ccn4C)cn2)n1 (stereo unspecified)", 94],
  ["Cn1ccc(-c2ccc(Cc3cc(C(=O)NC4CCOCC4)nc4c3ccn4C)cn2)n1", 90],
  ["Cn1ccc(-c2ccc(Cc3cc(C(=O)N[C@@H]4CCCC[C@H]4O)nc4c3ccn4C)cn2)n1", 87],
  ["Cn1ccc(-c2ccc(Cc3cc(C(=O)N[C@@H]4CCC[C@H]4O)nc4c3ccn4C)cn2)n1", 86]
]}

====

Target: UniProtKB P08482
Sequence (whole entry): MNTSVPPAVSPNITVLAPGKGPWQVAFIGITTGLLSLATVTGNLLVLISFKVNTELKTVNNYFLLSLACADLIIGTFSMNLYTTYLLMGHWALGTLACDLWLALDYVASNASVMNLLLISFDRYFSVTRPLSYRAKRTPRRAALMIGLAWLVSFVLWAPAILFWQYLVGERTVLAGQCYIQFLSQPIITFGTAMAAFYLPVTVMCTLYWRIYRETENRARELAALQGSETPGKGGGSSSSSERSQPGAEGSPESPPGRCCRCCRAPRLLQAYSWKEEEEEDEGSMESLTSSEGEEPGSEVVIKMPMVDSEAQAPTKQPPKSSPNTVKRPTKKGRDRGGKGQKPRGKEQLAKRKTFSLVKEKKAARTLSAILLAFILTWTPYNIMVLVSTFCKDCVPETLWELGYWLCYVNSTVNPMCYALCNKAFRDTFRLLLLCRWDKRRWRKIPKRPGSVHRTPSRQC
Assay: Positive allosteric modulation of rat M1 receptor expressed in CHO cells assessed as increase in acetylcholine-induced calcium mobilization pretreated for 2.5 mins followed by acetylcholine addition and measured after 1 min by Fluo-4-AM dye based assay
Type: functional, cell-based
Measured %max, listed per entry.
metricName: %max (%)

{"columns": ["compoundStructure", "reportedResult"],
 "data": [
  ["Cn1ccc2c(Cc3ccc(-c4nccs4)cc3)cc(C(=O)N[C@@H]3CCCC[C@H]3O)nc21", 91],
  ["Cn1ccc2c(Cc3ccc(-c4cscn4)cc3)cc(C(=O)NC3CCOCC3)nc21", 86],
  ["Cn1cc(-c2ccc(Cc3cc(C(=O)NC4CCOCC4)nc4c3ccn4C)cn2)cn1", 93],
  ["Cn1ccc2c(Cc3ccc(-c4nccs4)cc3)cc(C(=O)N[C@@H]3CCOC[C@H]3O)nc21", 90],
  ["Cn1ccc(-c2ccc(Cc3cc(C(=O)NC4CC5(COC5)C4)nc4c3ccn4C)cc2)n1", 91]
]}

====

test: Protein binding in rat brain assessed as unbound fraction; assay type: ADME, tissue-based
Measured fraction unbound, listed per entry.

{"columns": ["compoundStructure", "fraction unbound"],
 "data": [
  ["Cn1ccc(-c2ccc(Cc3cc(C(=O)NC4CCOCC4)nc4c3ccn4C)cc2)n1", 0.01],
  ["Cn1ccc(-c2ccc(Cc3cc(C(=O)N[C@@H]4CCCC[C@H]4O)nc4c3ccn4C)cn2)n1", 0.04],
  ["Cn1ccc(-c2ccc(Cc3cc(C(=O)N[C@@H]4CCOC[C@H]4O)nc4c3ccn4C)cc2)n1", 0.01],
  ["Cn1ccc2c(Cc3ccc(-c4nccs4)cc3)cc(C(=O)N[C@@H]3CCOC[C@H]3O)nc21", 0.01],
  ["Cn1cc(-c2ccc(Cc3cc(C(=O)N[C@@H]4CCCC[C@H]4O)nc4c3ccn4C)cn2)cn1", 0.07],
  ["Cn1cc(-c2ccc(Cc3cc(C(=O)NC4CCOCC4)nc4c3ccn4C)cn2)cn1", 0.08]
]}

====

target: Muscarinic acetylcholine receptor M1 (Rattus norvegicus, UniProt P08482); assay: Positive allosteric modulation of rat M1 receptor expressed in CHO cells assessed as increase in acetylcholine-induced calcium mobilization pretreated for 2.5 mins followed by acetylcholine addition and measured after 1 min by Fluo-4-AM dye based assay; type: functional, cell-based; conditions: read-out: EC50
EC50 vs 600 nM: less than gives y; not less than gives n.

{"columns": ["compound", "subjectOfTest", "category"],
 "data": [
  ["Cn1ccc(-c2ccc(Cc3cc(C(=O)NC4CCOCC4)nc4c3ccn4C)cn2)n1", "Muscarinic acetylcholine receptor M1 (Rattus norvegicus, UniProt P08482)", "n"],
  ["Cn1ccc(-c2ccc(Cc3cc(C(=O)NC4CCOC(C)(C)C4)nc4c3ccn4C)cn2)n1 (centres undefined)", "Muscarinic acetylcholine receptor M1 (Rattus norvegicus, UniProt P08482)", "y"],
  ["Cn1ccc2c(Cc3ccc(-c4nccs4)cc3)cc(C(=O)N[C@@H]3CCOC[C@H]3O)nc21", "Muscarinic acetylcholine receptor M1 (Rattus norvegicus, UniProt P08482)", "y"],
  ["Cn1ccc(-c2ccc(Cc3cc(C(=O)NC4CC5(COC5)C4)nc4c3ccn4C)cn2)n1", "Muscarinic acetylcholine receptor M1 (Rattus norvegicus, UniProt P08482)", "y"],
  ["Cn1ccc(-c2ccc(Cc3cc(C(=O)NCC4CCOCC4)nc4c3ccn4C)cn2)n1", "Muscarinic acetylcholine receptor M1 (Rattus norvegicus, UniProt P08482)", "n"],
  ["Cn1ccc(-c2ccc(Cc3cc(C(=O)NC4CCOCC4)nc4c3ccn4C)cc2)n1", "Muscarinic acetylcholine receptor M1 (Rattus norvegicus, UniProt P08482)", "y"],
  ["Cc1nc(-c2ccc(Cc3cc(C(=O)NC4CCOCC4)nc4c3ccn4C)cc2)co1", "Muscarinic acetylcholine receptor M1 (Rattus norvegicus, UniProt P08482)", "n"]
]}

Hey, just so you know, these numbers are from ChEMBL document CHEMBL4229572.
